Property: pKd; scope: individual binders
# measured on: T1, serum purified human Complement Factor D (human, UniProt P00746 26-253)
# T1 construct: Serum purified protein flowed over the captured antibodies; also called CFD; human CFD
# assay name: SPR Biacore, antibody on protein A chip, single cycle kinetics, 37 C;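 note: antibodies captured on the protein A surface to roughly 70 RU in HBS-EP+ buffer, with rate and affinity constants fitted using BIAevaluation software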
Kindly note that pKd refers to -log10 of the concentration in mol/L and answer with the value alone.

Look over these answered cases.
54I59D / 32W54S60W101V (antibody, V domains shown, Light label printed 32W54560W101V, read as 32W54S60W101V; also called 54I59D / 32W54560W101V) VH: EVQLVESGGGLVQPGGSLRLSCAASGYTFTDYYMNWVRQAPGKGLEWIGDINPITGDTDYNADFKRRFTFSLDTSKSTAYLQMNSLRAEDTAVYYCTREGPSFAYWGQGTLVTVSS VL: DIQLTQSPSSLSASVGDRVTITCRSSQTIVHWNGDTYLEWYQQKPGKAPNLLISKVSNRWSGVPSRFSGSGSGTDFTLTISSLQPEDFATYYCFQGSHVPVTFGQGTKVEIK ... 10.91
54I59D / 32W54S101V (antibody, V domains shown, Light label printed 32W545101V, read as 32W54S101V; also called 54I59D / 32W545101V) VH: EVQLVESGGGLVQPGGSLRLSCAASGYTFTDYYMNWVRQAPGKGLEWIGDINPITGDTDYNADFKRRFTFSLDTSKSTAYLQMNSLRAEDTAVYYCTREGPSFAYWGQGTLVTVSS VL: DIQLTQSPSSLSASVGDRVTITCRSSQTIVHWNGDTYLEWYQQKPGKAPNLLISKVSNRFSGVPSRFSGSGSGTDFTLTISSLQPEDFATYYCFQGSHVPVTFGQGTKVEIK ... 10.96
28H31S54V59D / 101V (antibody, V domains shown, KCD119 TAF variant; full antibody captured on protein A) VH: EVQLVESGGGLVQPGGSLRLSCAASGYHFTSYYMNWVRQAPGKGLEWIGDINPVTGDTDYNADFKRRFTFSLDTSKSTAYLQMNSLRAEDTAVYYCTREGPSFAYWGQGTLVTVSS VL: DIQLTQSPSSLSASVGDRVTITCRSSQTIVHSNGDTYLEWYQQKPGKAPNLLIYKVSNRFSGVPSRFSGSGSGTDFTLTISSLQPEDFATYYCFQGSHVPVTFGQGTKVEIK ... 10.59
54V56V / 101V (antibody, V domains shown, KCD119 TAF variant; full antibody captured on protein A) VH: EVQLVESGGGLVQPGGSLRLSCAASGYTFTDYYMNWVRQAPGKGLEWIGDINPVTVDTSYNADFKRRFTFSLDTSKSTAYLQMNSLRAEDTAVYYCTREGPSFAYWGQGTLVTVSS VL: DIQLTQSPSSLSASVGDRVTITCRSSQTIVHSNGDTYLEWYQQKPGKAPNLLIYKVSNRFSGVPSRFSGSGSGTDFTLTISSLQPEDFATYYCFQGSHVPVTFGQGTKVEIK ... 9.97
54I59D / 54S60W101V (antibody, V domains shown, Light label printed 54560W101V, read as 54S60W101V; also called 54I59D / 54560W101V) VH: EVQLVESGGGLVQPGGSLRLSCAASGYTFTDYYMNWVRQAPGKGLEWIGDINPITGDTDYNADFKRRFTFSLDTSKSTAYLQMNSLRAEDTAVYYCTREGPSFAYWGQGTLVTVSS VL: DIQLTQSPSSLSASVGDRVTITCRSSQTIVHSNGDTYLEWYQQKPGKAPNLLISKVSNRWSGVPSRFSGSGSGTDFTLTISSLQPEDFATYYCFQGSHVPVTFGQGTKVEIK ... 10.92

Here is the next item to consider.
Dear colleague, I am looking for the recorded pKd of the following binder: 28S31S54V59D / 101V (antibody, V domains shown, KCD119 TAF variant; full antibody captured on protein A) VH: EVQLVESGGGLVQPGGSLRLSCAASGYSFTSYYMNWVRQAPGKGLEWIGDINPVTGDTDYNADFKRRFTFSLDTSKSTAYLQMNSLRAEDTAVYYCTREGPSFAYWGQGTLVTVSS VL: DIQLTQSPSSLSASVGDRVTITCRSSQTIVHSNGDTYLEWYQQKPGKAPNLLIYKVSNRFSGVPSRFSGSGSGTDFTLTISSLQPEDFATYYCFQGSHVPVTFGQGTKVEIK
10.14
